# System: pigweed
# assay.name: Test B pre/postemergence pigweed
# Type: in vivo, Amaranthus retroflexus
# condition.summary: Preemergence, Rate 125 g/ha; scale of 0 to 10 where 0 is no effect and 10 is complete control
test.readout: Plant response rating, Redroot pigweed
Give bare numbers.

Count: 7. Required value per item: Plant response rating, Redroot pigweed.
1. CC(C)N(C(=O)n1oc(=O)n(CCN(C)C(=O)c2ccccc2)c1=O)c1ccccc1
2. CC1CC1Cn1c(=O)on(C(=O)N(c2ccc(F)cc2)C(C)C)c1=O (centres unmarked)
3. CC(C)N(C(=O)n1oc(=O)n(CCC#N)c1=O)c1ccccc1
4. CCOP(=O)(OCC)C(C)n1c(=O)on(C(=O)N(c2ccccc2)C(C)C)c1=O (centres unmarked)
5. CC(C)N(C(=O)n1oc(=O)n(C(C)C2CCC2)c1=O)c1ccc(F)cc1F (centres unmarked)
6. Cc1nc(Cl)sc1C(C)n1c(=O)on(C(=O)N(c2ccc(F)cc2)C(C)C)c1=O (centres unmarked)
7. CC(C)N(C(=O)n1oc(=O)n(C(C)C(=S)N(C)C)c1=O)c1ccc(Cl)cc1 (centres unmarked)

Solution:
0
2
0
0
5
0
0

Count: 3. Required value per item: Plant response rating, Redroot pigweed.
1. CCC=CCn1c(=O)on(C(=O)N(c2ccccc2)C(C)C)c1=O
2. CC(C)N(C(=O)n1oc(=O)n(C(C)C2CC2)c1=O)c1ccccc1 (centres unmarked)
3. CC(C)N(C(=O)n1oc(=O)n(C(C)C2=NOCC2)c1=O)c1ccc(Cl)cc1 (racemic)

Solution:
2
3
2

Problem: Recorded Plant response rating, Redroot pigweed for C=C(C)CCn1c(=O)on(C(=O)N(c2ccccc2)C(C)C)c1=O with pigweed, please?
Solution: 3

###

# System: rape
# assay.name: Test B pre/postemergence rape
# Assay type: in vivo, Brassica napus
# condition.summary: Postemergence, Rate 500 g/ha; scale of 0 to 10 where 0 is no effect and 10 is complete control
# Method: […] At the same time, these crop and weed species were also treated with postemergence applications of test chemicals formulated in the same manner. […] Treated plants and controls were maintained in a greenhouse for twelve to sixteen days, after which all species were compared to controls and visually evaluated. […]
test.readout: Plant response rating, Rape
Numbers only.

{"columns": ["molecule", "observed.value"],
 "data": [
  ["CCCCn1c(=O)on(C(=O)N(c2ccccc2)C(C)C)c1=O [Compound 556]", 2],
  ["CC(C)N(C(=O)n1oc(=O)n(Cc2nnc(Cl)s2)c1=O)c1ccc(F)cc1 [Compound 646]", 0],
  ["CCOP(=O)(Cn1c(=O)on(C(=O)N(c2ccc(F)cc2)C(C)C)c1=O)OCC [Compound 587]", 0]
]}

Now turn to the next molecule.
Problem: Which value of Plant response rating, Rape has been reported for CCOC(Cn1c(=O)on(C(=O)N(c2ccc(Cl)cc2)C(C)C)c1=O)OCC [Compound 633] in the records?
Solution: 0

###

# Tested on: wheat
# assay.name: Test B pre/postemergence wheat
# Format: in vivo, Triticum aestivum
# condition.summary: Preemergence, Rate 125 g/ha; 0 is no effect, 10 is complete control
Provide the reported Wheat plant response rating (0 to 10 scale) of each item.
Answers are plain numbers.

Here are 3 molecules together with their reported answers.
{"columns": ["smiles.entry", "observed.value"],
 "data": [
  ["CC(C)N(C(=O)n1oc(=O)n([C@@H](C)c2ccccc2)c1=O)c1ccccc1", 0],
  ["Cc1onc(-c2ccccc2)c1-n1c(=O)on(C(=O)N(c2ccc(F)cc2)C(C)C)c1=O", 0],
  ["COc1ccccc1Cn1c(=O)on(C(=O)N(c2ccc(F)cc2)C(C)C)c1=O", 0]
]}

Count: 3. Required value per item: Wheat plant response rating (0 to 10 scale).
1. CC(C)N(C(=O)n1oc(=O)n(Cc2ccccc2)c1=O)c1ccccc1
2. CC(C)N(C(=O)n1oc(=O)n(N(C)c2ccccc2)c1=O)c1ccc(F)cc1
3. C=CCn1c(=O)on(C(=O)N(c2ccc(F)cc2)C(C)C)c1=O

Solution:
1: 0; 2: 0; 3: 2
